Recorded inhibition by entry
assay: blockers of STAT3 transcriptional signaling – U3A cells, luciferase, luminescence, MLSCN library, primary screen (AID 862); details: IL-6 STAT3-luciferase reporter, at 5.5 µM, hits give high values;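 further: 0% = DMSO only wells and 100% = 100 µM nifuroxazide control wells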
Among all 190,000 compounds or so, about 1,700 (0.89%) were called active. Many of the other results were omitted from the sample, so actives are more common in it than they were.
experimental-endpoint: inhibition (%)

INSERT INTO assay_data (smiles, experimental_endpoint, observed_value) VALUES
  ('CN1CCN(c2cc(N3CCNCC3)ccc2[N+](=O)[O-])CC1', 'inhibition', -1.6),
  ('COc1ccc(C(=O)CC2C(=O)N(C)C(=O)N(C)C2=O)cc1', 'inhibition', 8.6),
  ('N#Cc1ccc(Cn2cc(C(=O)c3ccco3)c3ccccc32)cc1', 'inhibition', 10.3),
  ('CC1=CC(=Cc2sc3ccccc3[n+]2C)C=C(C)O1', 'inhibition', 81.6),
  ('Cc1cccc(-n2c(O)c(/C=N/N3CCOCC3)c(=O)[nH]c2=S)c1', 'inhibition', -17.9);
